- Test system: Staphylococcus aureus
- methodNotes: Antibacterial activity against Staphylococcus aureus ATCC 6538 after 24 hrs by NCCLS method
- Format: functional, organism-based
- measurementConditions: ATCC 6538, 24 h
Please respond with reported IC50 for every item in the list.

CCCCC/C=C/C1=C(CO)C(=O)C[C@](O)(C/C=C(\C)C(=O)O)[C@H]1O > 50 µM
CCCCC/C=C/C1=C(COC(C)=O)[C@@H](O)[C@H]2O[C@@]2(C/C=C(\C)C(=O)O)C1=O 27.8 µM
CCC(=O)CC/C=C/C1=C(CO)[C@@H](O)[C@H]2O[C@@]2(C/C=C(\C)C(=O)O)C1=O > 50 µM

Input: GET /values?readout=IC50&system=Staphylococcus aureus&item= CCCCCCCC1=C(CO)[C@@H](O)[C@H]2O[C@@]2(C/C=C(\C)C(=O)O)C1=O
Output: > 50 µM

====

- System: Staphylococcus aureus
- methodNotes: Antibacterial activity against Staphylococcus aureus ATCC 6538 after 24 hrs by NCCLS method
- Format: functional, organism-based
- measurementConditions: ATCC 6538, 24 h
pIC50: −log10 of the molar value.
measurementType: pIC50

Known results for compounds:
compound	pIC50
CCC/C=C/C=C/C1=C(CO)[C@@H](O)[C@H]2O[C@@]2(C/C=C(\C)C(=O)O)C1=O	< 4.30
CCCCC/C=C/C1=C(CO)[C@H](O)[C@H]2O[C@@]2(C/C=C(\C)C(=O)O)C1=O [AMBUIC ACID]	4.36

Consider the following items and state reported pIC50 for each.
1. CCCCC/C=C/C1=C2COC(C)(C)O[C@H]2[C@H]2O[C@@]2(C/C=C(\C)C(=O)O)C1=O
2. CCCCCC1O[C@H]2C3=C(C(=O)[C@@]4(C/C=C(\C)C(=O)O)OC4[C@H]3O)C1C1C(CCCCC)OC=C3C(=O)C4O[C@]4(C/C=C(\C)C(=O)O)C(=O)C312 (some centres undefined)

Output:
1. < 4.30
2. < 4.30
